- testedOn: UniProtKB P97612
- assayProcedure: Assay Method 2: FAAH assay, 3H-anandamide hydrolysis in cell homogenate
- conditionInfo: transfected SK-N-MC cell homogenate, 80 nM 3H-AEA, 1 h rt, > = solubility limit or highest concentration tested
recordedMetric: IC50 (nM)

# count of solved cases: 2
INSERT INTO results (linenotation, unitabbrev, measured) VALUES
  ('Cc1ccc2cc(CN3CCC(C(=O)c4ncco4)CC3)c(Cl)nc2c1', 'nM', 470),
  ('O=C(c1ncco1)C1CCN(Cc2ccc3ccccc3c2)CC1', 'nM', 9);

I: O=C(c1ncco1)C1CCN(Cc2ccc(Cl)nc2)CC1
II: O=C(c1ncco1)C1CCN(Cc2ccc(C(F)(F)F)cc2)CC1
Given the listed records, identify the one among I and II with higher IC50. Refer to your chosen entry by its label in the reply.
I

---

- testedOn: FAAH (Homo sapiens)
- assayProcedure: Assay Method 1: FAAH assay, 3H-anandamide hydrolysis in cell homogenate
- conditionInfo: T84 or transfected SK-N-MC cell homogenate, 80 nM 3H-AEA, 1 h rt, > = solubility limit or highest concentration tested
- Description: A. Transfection of Cells with Human FAAH A 10-cm tissue culture dish with a confluent monolayer of SK-N-MC cells was split 2 days (d) prior to transfection. Using sterile technique, the media was removed and the cells were detached from the dish by the addition of trypsin. One fifth of the cells were then placed onto a new 10-cm dish. […] After 10 d, dishes were analyzed for surviving colonies of cells. […]
recordedMetric: IC50 (nM)

INSERT INTO results (linenotation, measured) VALUES
  ('O=C(c1ncco1)C1CCN(Cc2cccc(Br)c2)CC1', 35);

I: COc1cccc(CN2CCC(C(=O)c3ncco3)CC2)c1
II: O=C(c1ncco1)C1CCN(Cc2ccc(Br)cc2F)CC1
III: O=C(c1ncco1)C1CCN(Cc2cccc(Oc3ccccc3)c2)CC1
IV: O=C(c1ncco1)C1CCN(S(=O)(=O)c2ccc(Cl)cc2)CC1
Please rank these compounds by IC50 in descending order. Write the labels, ordered according to the request.
IV, I, III, II

---

- testedOn: FAAH (Homo sapiens, UniProt O00519)
- Sequence (O00519 whole entry): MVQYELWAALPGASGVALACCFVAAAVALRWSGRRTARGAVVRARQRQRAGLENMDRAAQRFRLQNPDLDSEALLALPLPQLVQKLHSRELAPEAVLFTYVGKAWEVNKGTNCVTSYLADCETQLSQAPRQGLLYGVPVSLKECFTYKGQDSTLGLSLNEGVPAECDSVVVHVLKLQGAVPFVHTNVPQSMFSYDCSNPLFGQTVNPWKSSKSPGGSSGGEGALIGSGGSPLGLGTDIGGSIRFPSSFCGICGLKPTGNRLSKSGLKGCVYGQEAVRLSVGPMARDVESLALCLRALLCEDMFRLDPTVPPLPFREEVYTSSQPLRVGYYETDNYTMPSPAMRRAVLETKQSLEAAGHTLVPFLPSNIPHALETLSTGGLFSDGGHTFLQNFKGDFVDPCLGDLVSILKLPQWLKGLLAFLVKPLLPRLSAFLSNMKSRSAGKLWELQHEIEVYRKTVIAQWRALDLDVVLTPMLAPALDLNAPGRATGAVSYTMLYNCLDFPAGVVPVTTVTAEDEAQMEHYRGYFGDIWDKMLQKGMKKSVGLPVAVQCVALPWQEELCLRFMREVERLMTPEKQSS
- assayProcedure: Assay Method 1: FAAH assay, 3H-anandamide hydrolysis in cell homogenate
- conditionInfo: T84 or transfected SK-N-MC cell homogenate, 80 nM 3H-AEA, 1 h rt, > = solubility limit or highest concentration tested
pIC50: −log10 of the molar value.
recordedMetric: pIC50

# count of solved cases: 6
INSERT INTO results (linenotation, measured) VALUES
  ('Cc1cccc(CN2CCC(C(=O)c3ncco3)CC2)n1', 6.19),
  ('O=C(c1ncco1)C1CCN(C(=O)c2ccc3ccccc3c2)CC1', 7.55),
  ('O=C(c1ncco1)C1CCN(Cc2cccc(C(F)(F)F)c2)CC1', 7.29),
  ('O=C(c1ncco1)C1CCN(Cc2cccc(OC(F)(F)F)c2)CC1', 7.60),
  ('O=C(c1ncco1)C1CCN(Cc2cnc3ccccc3n2)CC1', 7.52),
  ('Cn1c(CN2CCC(C(=O)c3ncco3)CC2)nc2ccccc21', 7.43);

I: O=C(c1ncco1)C1CCN(Cc2ccc3cccc(Cl)c3n2)CC1
II: O=C(c1ncco1)C1CCN(Cc2cc3ccc(Cl)cc3nc2Cl)CC1
III: O=C(c1ncco1)C1CCN(Cc2ccc3ccccc3n2)CC1
IV: O=C(c1ncco1)C1CCN(C(=O)CCc2ccccc2)CC1
Please rank these molecules by pIC50 in descending order. Write the labels, ordered according to the request.
I, III, II, IV
(I: 8.40, III: 7.89, II: 6.30, IV: 5.80)

a: O=C(c1ncco1)C1CCN(Cc2ccccc2F)CC1
b: O=C(c1ncco1)C1CCN(Cc2ccc(F)cc2)CC1
c: COc1ccc(CN2CCC(C(=O)c3ncco3)CC2)cn1
d: Cc1ccc2nc(Cl)c(CN3CCC(C(=O)c4ncco4)CC3)cc2c1
Please rank these molecules by pIC50 in descending order. Write the labels, ordered according to the request.
d, b, c, a

---

- testedOn: FAAH (Homo sapiens)
- assayProcedure: Assay Method 1: FAAH assay, 3H-anandamide hydrolysis in cell homogenate
- conditionInfo: T84 or transfected SK-N-MC cell homogenate, 80 nM 3H-AEA, 1 h rt, > = solubility limit or highest concentration tested
recordedMetric: IC50 (nM)

# count of solved cases: 10
INSERT INTO assay_data (molecule, testedon, measured) VALUES
  ('O=C(c1ncco1)C1CCN(Cc2ccc3cccc(O)c3n2)CC1 [Example 79]', 'FAAH (Homo sapiens)', 12),
  ('O=C(c1ncco1)C1CCN(Cc2ccc(Oc3ccccc3)cc2)CC1 [Example 57]', 'FAAH (Homo sapiens)', 210),
  ('O=C(c1ncco1)C1CCN(Cc2cccc(Cl)c2)CC1 [Example 34]', 'FAAH (Homo sapiens)', 78),
  ('O=C(c1ncco1)C1CCN(Cc2ccc3[nH]ccc3c2)CC1 [Example 42]', 'FAAH (Homo sapiens)', 519),
  ('O=C(c1ncco1)C1CCN(Cc2cc3ccccc3s2)CC1 [Example 54]', 'FAAH (Homo sapiens)', 2),
  ('Cc1ccccc1CN1CCC(C(=O)c2ncco2)CC1 [Example 66]', 'FAAH (Homo sapiens)', 175),
  ('COc1ccc(CN2CCC(C(=O)c3ncco3)CC2)cc1 [Example 61]', 'FAAH (Homo sapiens)', 208),
  ('O=C(c1ncco1)C1CCN(Cc2ccc3c(c2)OC(F)(F)O3)CC1 [Example 71]', 'FAAH (Homo sapiens)', 27),
  ('COc1ccc2cc(CN3CCC(C(=O)c4ncco4)CC3)ccc2c1 [Example 46]', 'FAAH (Homo sapiens)', 260),
  ('Cn1c(CN2CCC(C(=O)c3ncco3)CC2)cc2ccccc21 [Example 50]', 'FAAH (Homo sapiens)', 4);

P: CC(C)c1ccc(CN2CCC(C(=O)c3ncco3)CC2)cc1 [Example 86]
Q: O=C(c1ncco1)C1CCN(Cc2cnc3ccccc3c2)CC1 [Example 85]
R: Cc1cccc2cc(CN3CCC(C(=O)c4ncco4)CC3)c(Cl)nc12 [Example 73]
Order each entry by recorded IC50, climbing from the minimum. Write the labels, ordered according to the request.
R, Q, P
(R: 2 nM, Q: 18 nM, P: 110 nM)

1: O=C(c1ncco1)C1CCN(Cc2ccc(Cl)cc2)CC1 [Example 35]
2: O=C(c1ncco1)C1CCN(Cc2ccc3cc[nH]c3c2)CC1 [Example 45]
3: O=C(c1ncco1)C1CCN(Cc2ccc(Cl)nc2)CC1 [Example 82]
Please rank these molecules by IC50 in descending order. Write the labels, ordered according to the request.
2, 3, 1

1: O=C(c1ncco1)C1CCN(Cc2ccc(OC(F)(F)F)cc2)CC1 [Example 36]
2: O=C(c1ncco1)C1CCN(Cc2ccccc2)CC1 [Example 89]
3: O=C(c1ncco1)C1CCN(Cc2cc3cc4c(cc3nc2Cl)OCO4)CC1 [Example 67]
Order each entry by recorded IC50, climbing from the minimum. Write the labels, ordered according to the request.
1, 3, 2
(1: 25 nM, 3: 745 nM, 2: 3000 nM)

---

- testedOn: FAAH (Homo sapiens, UniProt O00519)
- assayProcedure: Assay Method 1: FAAH assay, 3H-anandamide hydrolysis in cell homogenate
- conditionInfo: T84 or transfected SK-N-MC cell homogenate, 80 nM 3H-AEA, 1 h rt, > = solubility limit or highest concentration tested
recordedMetric: IC50 (nM)

# count of solved cases: 2
INSERT INTO measurements (compound, testedon, unitabbrev, measured) VALUES
  ('COc1cccc(S(=O)(=O)N2CCC(C(=O)c3ncco3)CC2)c1 [Example 3]', 'FAAH (Homo sapiens, UniProt O00519)', 'nM', 8000),
  ('O=C(c1ncco1)C1CCN(Cc2ccc(Cl)c(Cl)c2)CC1 [Example 44]', 'FAAH (Homo sapiens, UniProt O00519)', 'nM', 5);

P: O=C(c1ncco1)C1CCN(Cc2ccc3cccnc3n2)CC1 [Example 41]
Q: CC(C)COc1ccc(CN2CCC(C(=O)c3ncco3)CC2)cc1 [Example 17]
R: O=C(c1ncco1)C1CCN(Cc2nc3ccccc3cc2Cl)CC1 [Example 80]
Order each entry by recorded IC50, climbing from the minimum. Write the labels, ordered according to the request.
R, Q, P

---

- testedOn: Rat FAAH (Rattus norvegicus, UniProt P97612)
- Sequence (P97612 whole entry): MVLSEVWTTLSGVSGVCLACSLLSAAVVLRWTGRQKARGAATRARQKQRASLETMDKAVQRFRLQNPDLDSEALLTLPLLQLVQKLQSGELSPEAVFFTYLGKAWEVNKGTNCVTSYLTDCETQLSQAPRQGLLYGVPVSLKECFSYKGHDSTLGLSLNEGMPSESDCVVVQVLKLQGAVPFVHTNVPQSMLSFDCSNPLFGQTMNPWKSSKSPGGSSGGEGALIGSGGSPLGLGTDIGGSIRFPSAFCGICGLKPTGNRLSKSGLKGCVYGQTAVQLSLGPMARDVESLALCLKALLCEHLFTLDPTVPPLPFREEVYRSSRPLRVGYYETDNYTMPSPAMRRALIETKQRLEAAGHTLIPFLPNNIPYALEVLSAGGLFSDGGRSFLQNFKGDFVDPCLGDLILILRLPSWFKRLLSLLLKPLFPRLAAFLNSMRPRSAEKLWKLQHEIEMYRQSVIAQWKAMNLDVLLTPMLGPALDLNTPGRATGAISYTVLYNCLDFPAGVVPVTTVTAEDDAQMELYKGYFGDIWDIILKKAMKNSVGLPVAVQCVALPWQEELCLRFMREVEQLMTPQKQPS
- assayProcedure: Assay Method 2: FAAH assay, 3H-anandamide hydrolysis in cell homogenate
- conditionInfo: transfected SK-N-MC cell homogenate, 80 nM 3H-AEA, 1 h rt, > = solubility limit or highest concentration tested
recordedMetric: IC50 (nM)

1: COc1ccc(CN2CCC(C(=O)c3ncco3)CC2)cc1
2: O=C(c1ncco1)C1CCN(Cc2ccc(OC(F)(F)F)cc2)CC1
3: O=C(c1ncco1)C1CCN(S(=O)(=O)c2cccc(Cl)c2)CC1
Order required: smallest reported IC50 first, largest last, for all compounds above. Write the labels, ordered according to the request.
2, 1, 3

a: O=C(c1ncco1)C1CCN(Cc2ccc3cc(Cl)ccc3n2)CC1
b: CCOc1cccc(CN2CCC(C(=O)c3ncco3)CC2)c1
c: O=C(c1ncco1)C1CCN(Cc2ccc3ccc(Cl)cc3n2)CC1
d: O=C(c1ncco1)C1CCN(Cc2ccc(F)c(F)c2)CC1
e: CC(C)c1ccc(CN2CCC(C(=O)c3ncco3)CC2)cc1
Order each entry by recorded IC50, climbing from the minimum. Write the labels, ordered according to the request.
c, a, d, e, b
(c: 8 nM, a: 22 nM, d: 76 nM, e: 170 nM, b: 1400 nM)

a: O=C(c1ncco1)C1CCN(Cc2cc3ccccc3o2)CC1
b: Cc1ccccc1CN1CCC(C(=O)c2ncco2)CC1
c: Cn1ccc2ccc(CN3CCC(C(=O)c4ncco4)CC3)cc21
Order each entry by recorded IC50, climbing from the minimum. Write the labels, ordered according to the request.
a, c, b

A: O=C(c1ncco1)C1CCN(Cc2ccc(Cl)cc2)CC1
B: O=C(c1ncco1)C1CCN(S(=O)(=O)c2ccc(Cl)cc2)CC1
Given the listed records, identify the one among A and B with higher IC50. Refer to your chosen entry by its label in the reply.
B

P: Cc1ccc2nc(Cl)c(CN3CCC(C(=O)c4ncco4)CC3)cc2c1
Q: Cc1cccc(CN2CCC(C(=O)c3ncco3)CC2)c1
Given the listed records, identify the one among P and Q with higher IC50. Refer to your chosen entry by its label in the reply.
Q
(Q: 970 nM, P: 87 nM)

1: O=C(c1ncco1)C1CCN(Cc2ccc3ccccc3c2O)CC1
2: COc1ccc2cc(CN3CCC(C(=O)c4ncco4)CC3)ccc2c1
3: O=C(c1ncco1)C1CCN(Cc2cccc3ccccc23)CC1
Please rank these compounds by IC50 in descending order. Write the labels, ordered according to the request.
2, 3, 1
(2: 219 nM, 3: 63 nM, 1: 7 nM)

P: O=C(c1ncco1)C1CCN(Cc2ccc(F)cc2)CC1
Q: O=C(c1ncco1)C1CCN(Cc2cc3ccc(Cl)cc3nc2Cl)CC1
Identify the item whose IC50 is the smaller number: P or Q Refer to your chosen entry by its label in the reply.
Q
